Assay type: in vivo, rat
measurement_setup: PM/P (polyI:C+maoto vs polyI:C), 4h
Experimental: Distilled water and saline were administered as vehicle to rats in each control group. […] Plasma cytokine levels were measured by ELISA or multiplex immunoassay; common metabolites and lipid mediators were analyzed by GC-MS/MS and LC-MS/MS, respectively. Pathway maps of lipid mediators were created by using CellDesigner 4.4 software (http://www.celldesigner.org). […] The proinflammatory and anti-inflammatory indices were analyzed as described by Tam et al. with modification.[22]
observation_type: log2FC of plasma level
Number only, no unit.

CC/C=C\C/C=C\C/C=C\C/C=C\C=C\C(O)CCCC(=O)O (stereo not drawn) [5-HEPE]    -0.47
CCCCCC(O)C(O)C/C=C\C/C=C\C/C=C\CCCC(=O)O (stereo not drawn) [14,15-DHET]    -0.41
CCCCCC(O)/C=C/C=C/C/C=C/CCCC(=O)O (stereo not drawn) [12-HHT]    -1.45

// query For CCCCC[C@H](O)/C=C/[C@H]1[C@H](O)CC(=O)[C@@H]1C/C=C\CCCC(=O)O [PGE2] , what is its reported log2FC of plasma level?
// result 0.22

// query Requested read-out: log2FC of plasma level. Entry: CC/C=C\C/C=C\C/C=C\C/C=C\CC(O)C(O)CCCC(=O)O (stereo not drawn) [5,6-DiHETE]
// result -0.44

// query Given the entry CCCCC/C=C\C/C=C\CC(O)C(O)C/C=C\CCCC(=O)O (stereo not drawn) [8,9-DHET] , report its measured log2FC of plasma level.
// result -0.59

All values here come from paper PMC5654968.
